Molecular target: BACE1 (Homo sapiens, UniProt P56817)
Sequence (P56817 46-501, species assumed): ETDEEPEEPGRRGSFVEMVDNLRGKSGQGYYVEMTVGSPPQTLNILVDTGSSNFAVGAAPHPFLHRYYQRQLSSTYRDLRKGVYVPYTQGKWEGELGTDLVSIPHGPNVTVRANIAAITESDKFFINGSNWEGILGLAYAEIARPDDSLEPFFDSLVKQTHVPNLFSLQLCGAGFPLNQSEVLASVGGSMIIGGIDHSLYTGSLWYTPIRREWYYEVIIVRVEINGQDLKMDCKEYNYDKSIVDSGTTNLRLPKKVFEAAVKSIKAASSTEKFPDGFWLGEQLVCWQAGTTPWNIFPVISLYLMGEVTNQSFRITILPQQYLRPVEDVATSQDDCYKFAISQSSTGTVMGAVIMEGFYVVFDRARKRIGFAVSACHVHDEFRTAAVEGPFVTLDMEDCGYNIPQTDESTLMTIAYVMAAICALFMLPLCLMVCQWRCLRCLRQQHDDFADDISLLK
Assay: In Vitro BACE Cell-based Assay (HEK cell assay): Aβ40 in conditioned medium of cells stably expressing Amyloid Precursor Protein, sandwich ELISA
Conditions: HEK cells; read-out: HEK cell assay
# IC50 annotations

These recorded examples may help you get a feel for the data.
structure_string=CC(C)(C)C#Cc1cc2c(cn1)Oc1ccc(-c3cncnc3)cc1[C@@]21COC(N)=N1 assay_system="BACE1 (Homo sapiens, UniProt P56817)" value_measured="< 100 nM"
structure_string=NC1=N[C@@]2(CO1)c1cc(-c3cc(F)ccc3F)ccc1Oc1ncc(C3=CCOCC3)cc12 assay_system="BACE1 (Homo sapiens, UniProt P56817)" value_measured="< 100 nM"
structure_string=NC1=N[C@@]2(CO1)c1cc(-c3cccnc3)ccc1Oc1cnc(N3CCC3)cc12 assay_system="BACE1 (Homo sapiens, UniProt P56817)" value_measured="100 to 1000 nM"
structure_string=NC1=N[C@]2(CO1)c1cc(C3=CCOCC3)ccc1Oc1cnc(-c3cccnc3F)cc12 assay_system="BACE1 (Homo sapiens, UniProt P56817)" value_measured="< 100 nM"
structure_string=NC1=N[C@@]2(CO1)c1cc(-c3cccc(F)c3)ccc1Oc1cnc(C3=CCOCC3)cc12 assay_system="BACE1 (Homo sapiens, UniProt P56817)" value_measured="< 100 nM"

Lookup: Which IC50 is reported with BACE1 (Homo sapiens, UniProt P56817) for this entry: NC1=N[C@]2(CO1)c1cc(C3=CCOCC3)ccc1Oc1cc(F)c(O)cc12 ?
Found: 1000 to 5000 nM

Lookup: Item: CC1(C)CN(c2cnc3c(c2)[C@]2(COC(N)=N2)c2cc(-c4cc(F)ccc4F)ccc2O3)CCO1
Found: < 100 nM

Lookup: Same for NC1=N[C@@]2(CO1)c1cc(C(=O)NC3CC3)ccc1Oc1ccc(-c3ccccc3)cc12
Found: < 100 nM

Lookup: Thanks! And COC1CCN(c2ccc3c(c2)[C@]2(COC(N)=N2)c2cc(-c4cccnc4)ccc2O3)CC1 ?
Found: < 100 nM

Lookup: Next molecule up: CC1CCN(c2cc3c(cn2)Oc2ccc(-c4cccnc4)cc2[C@@]32COC(N)=N2)CC1
Found: < 100 nM

Lookup: NC1=N[C@@]2(CO1)c1cc(-c3cncnc3)ccc1Oc1ccc(N3CC(F)(F)C3)cc12 ?
Found: < 100 nM

Lookup: Then CC1(C)C=C(c2cc3c(cn2)Oc2ccc(-c4cccnc4)cc2[C@@]32COC(N)=N2)CCO1 ?
Found: < 100 nM

Lookup: Same lookup for NC1=N[C@@]2(CO1)c1cc(-c3cccnc3)ccc1Oc1cnc(N3CCCC3)cc12 , please.
Found: < 100 nM

----------
# IC50 listing for each entry below
Target: UniProt P56817
Test: In Vitro Enzymatic BACE FRET (Fluorescence Resonance Energy Transfer) Assay
Type: biochemical
Details: Table III; IC50's in uM ranges; read-out: BACE1 FRET assay

compound="COc1ccc2c(c1)[C@]1(COC(N)=N1)c1cc(-c3cncnc3)cc(F)c1O2 [152a]" assay_system="UniProt P56817" measured_endpoint=IC50 value_measured="0.1 to 1 µM"
compound=Cc1nn(C)c(C)c1-c1ccc2c(c1)[C@@]1(COC(N)=N1)c1cc(OCC(C)(C)C)ccc1O2 assay_system="UniProt P56817" measured_endpoint=IC50 value_measured="0.1 to 1 µM"
compound="CC(C)(C)CCc1ccc2c(c1)[C@]1(COC(N)=N1)c1cc(-c3ccc(F)nc3)ccc1O2 [153b]" assay_system="UniProt P56817" measured_endpoint=IC50 value_measured="< 0.1 µM"
compound=CC(C)(O)COc1ccc2c(c1)[C@]1(COC(N)=N1)c1cc(Br)ccc1O2 assay_system="UniProt P56817" measured_endpoint=IC50 value_measured="1 to 5 µM"
compound=CC(C)OCCOc1ccc2c(c1)[C@]1(COC(N)=N1)c1cc(-c3cccnc3)ccc1O2 assay_system="UniProt P56817" measured_endpoint=IC50 value_measured="< 0.1 µM"

Lookup: Which measured IC50 value corresponds to NC1=N[C@]2(CO1)c1cc(OCC(C(F)(F)F)C(F)(F)F)ccc1Oc1ccc(-c3cncnc3)cc12 ?
Found: 0.1 to 1 µM

Lookup: Next compound up: NC1=N[C@@]2(CO1)c1cc(-c3cccnc3)ccc1Oc1ccc(-c3cncnc3)cc12
Found: < 0.1 µM

Lookup: Query N#Cc1ccc(-c2ccc3c(c2)[C@]2(COC(N)=N2)c2cc(-c4cccnc4)ccc2O3)cc1 next
Found: < 0.1 µM

Lookup: Follow-up entry: CC(C)(C)C#Cc1cnc2c(c1)[C@@]1(COC(N)=N1)c1cc(-c3cccnc3)ccc1O2 [185a]
Found: 0.1 to 1 µM

Lookup: Please give the result for C[C@H]1OC(N)=N[C@]12c1cc(OCC(C)(C)C)ccc1Oc1ccc(-c3cncnc3)cc12 [126c] too.
Found: 0.1 to 1 µM

Lookup: Now the compound CC(C)(C)COc1ccc2c(c1)[C@]1(COC(N)=N1)c1cc(-c3csc(-n4ccnc4)n3)ccc1O2
Found: 0.1 to 1 µM

Lookup: Same again, this time with CC(C)(C#N)COc1ccc2c(c1)[C@]1(COC(N)=N1)c1cc(-c3cccnc3)ccc1O2
Found: < 0.1 µM

Source: patent US8426447B2
